Parameter growth: see the listing below.
# Tested on: HOP-92 NSCLC
# assay procedure: NCI-60 one-dose screen, 48 h (100 = growth as untreated, 0 = no growth, -100 = all killed)
# reported conditions: 10 µM unless noted
Compounds without any hit were thinned out: in the full panel of roughly 83,000, 20% have a hit.
Respond with the bare value in %.

Worked set:
# molecule, target system, measured metric, meas value
records = [
    ("O=C1Nc2ccccc2/C1=C/c1c[nH]c2ccccc12", "HOP-92 NSCLC", "growth", 65.2),
    ("CCc1ccc2c(c1)N(CCO)C1=C(C(=O)OC1)C2c1cccc(Br)c1 (stereo not given)", "HOP-92 NSCLC", "growth", 75.6),
    ("COc1ccc(/C=c2\\c(=O)n(-c3ccccc3)c3nn4c(n23)=NNC42CCCCC2)cc1", "HOP-92 NSCLC", "growth", 94.1),
    ("O=c1[nH]c2ccccc2n2cc3cccnc3c12", "HOP-92 NSCLC", "growth", 83.6),
    ("CC(C)=CCC[C@H](C)c1ccc(C)c2c1OCN(CCO)C2", "HOP-92 NSCLC", "growth", 4.21),
    ("Oc1[nH]c2ccc(Cl)cc2c1/C=c1/ccc2c(c1)N=C(c1ccc(F)cc1)N=2", "HOP-92 NSCLC", "growth", 34.2),
    ("COc1ccc(-c2cn(-c3cccc(C(=O)/C=C/c4ccc(O)c(OC)c4)c3)c(=O)[nH]2)cc1", "HOP-92 NSCLC", "growth", 22.6),
    ("CNCc1cccc2c1OCCOCCOCCC(C)S(=O)(=O)c1ccc(cc1)-c1cnc(N)c(n1)C(=O)N2 (stereo not given)", "HOP-92 NSCLC", "growth", 80.3),
]

What measured growth goes with CCCCCCCCCCCCCCCc1cc(O)ccc1[N+](=O)[O-] ? 59.9

What measured growth goes with O=C(Nc1cccc(Cl)c1)Nc1cc(C(F)(F)F)ccc1Cl ? -20.3

====

# Test system: CCRF-CEM leukemia
# assay procedure: NCI-60 one-dose screen, 48 h
# reported conditions: 10 µM unless noted
The panel holds about 83,000 compounds, 20% with a hit somewhere; the sample as a whole holds those more often. Active and inactive are the calls of the source. How the source made its calls: active means growth percent below 10; inactive means the rest.
Lab note: assign the record to one of active, inactive

// known answers, use as guide
# molecule, label
data = [
    ("CCOc1ccc([C@@H]2[C@@H](Oc3ccccc3)C(=O)N2c2cc(OC)c(OC)c(OC)c2)cc1", "active"),
    ("CC(=O)c1ccc(Nc2nc(Cl)nc(Oc3c(Cl)cccc3Cl)n2)cc1", "inactive"),
    ("[O-]/[N+](=C\\c1ccccc1)CC1(O)CCCCC1", "inactive"),
    ("COC(=O)/C=C/c1cc(OC(C)=O)c2c(c1)[C@@H](C(=O)OC)[C@H](c1ccc(OC(C)=O)c(OC(C)=O)c1)O2", "active"),
    ("CC(=O)Nc1nonc1-c1nc2ccccc2n1Cc1ccc(C(C)(C)C)cc1", "inactive"),
]

# fetch the recorded call for CCC1CCc2nc3sc(C(=O)Nc4cccc(F)c4)c(N)c3cc2C1 (stereo unspecified) here inactive

# fetch the recorded call for O=[N+]([O-])c1cc(F)c2cccnc2c1O here inactive

# fetch the recorded call for O=C(CN1CCN(c2ccccc2)CC1)N1CCN(c2nnc(-c3ccc(Cl)cc3)c(-c3ccc(Cl)cc3)n2)CC1 here inactive

# fetch the recorded call for CCOC(=O)NNc1cccc(Cl)c1 here inactive
